- assay.protocol: Evaluation of solubility in solvent
- Assay type: physicochemical
- condition.details: γ-butyrolactone, room temperature (25° C.), highest concentration completely dissolved
experimental.endpoint: Solubility Solvent-3 (wt %)

Some solved entries appear below for comparison.
>>> observed_value("CC(C)(C)c1cccc([S+](c2ccc3sc4ccccc4c(=O)c3c2)c2ccc(Sc3ccc4sc5ccccc5c(=O)c4c3)cc2C(C)(C)C)c1 (stereo not shown) [Example 20]")
25
>>> observed_value("Cc1cccc([S+](c2ccc3sc4ccccc4c(=O)c3c2)c2ccc(Sc3ccc4sc5ccccc5c(=O)c4c3)cc2C)c1 (stereo not shown) [Example 4]")
12
>>> observed_value("Cc1cccc([S+](c2ccc3sc4ccccc4c(=O)c3c2)c2ccc(Sc3ccc4sc5ccccc5c(=O)c4c3)cc2C)c1 (stereo not shown) [Example 6]")
23
>>> observed_value("COc1cccc([S+](c2ccc3sc4ccccc4c(=O)c3c2)c2ccc(Sc3ccc4sc5ccccc5c(=O)c4c3)cc2OC)c1 (stereo not shown) [Example 15]")
18
>>> observed_value("Cc1ccc(C)c([S+](c2ccc3sc4ccccc4c(=O)c3c2)c2cc(C)c([S+]([O-])c3ccc4sc5ccccc5c(=O)c4c3)cc2C)c1 (stereo not shown) [Example 50]")
40

1. Cc1cc(C)cc([S+](c2ccc3sc4ccccc4c(=O)c3c2)c2c(C)cc(Sc3ccc4sc5ccccc5c(=O)c4c3)cc2C)c1 (stereo not shown) [Example 30]
2. COc1cccc([S+](c2ccc3sc4ccccc4c(=O)c3c2)c2ccc(Sc3ccc4sc5ccccc5c(=O)c4c3)cc2OC)c1 (stereo not shown) [Example 12]
3. Cc1cc(C)cc([S+](c2ccc3sc4ccccc4c(=O)c3c2)c2c(C)cc(Sc3ccc4sc5ccccc5c(=O)c4c3)cc2C)c1 (stereo not shown) [Example 31]
Please list these in order of increasing Solubility Solvent-3. Thank you! When ranking, write the labels in the order the request describes.
2, 3, 1

A. Cc1ccc(C)c([S+](c2ccc3sc4ccccc4c(=O)c3c2)c2cc(C)c(Sc3ccc4sc5ccccc5c(=O)c4c3)cc2C)c1 (stereo not shown) [Example 38]
B. O=c1c2ccccc2sc2ccc(Sc3ccc([S+](c4ccccc4)c4ccc5sc6ccccc6c(=O)c5c4)cc3)cc12 (stereo not shown) [Comparative Example 3, reference compound]
Which is greater in Solubility Solvent-3, the first item A or the second item B ? Your answer should be the label attached to the chosen record.
A

---

- assay.protocol: Evaluation of solubility in solvent
- Assay type: physicochemical
- condition.details: γ-butyrolactone, room temperature (25° C.), highest concentration completely dissolved
experimental.endpoint: Solubility Solvent-3 (wt %)

Some solved entries appear below for comparison.
>>> observed_value("Cc1ccc(C)c([S+](c2ccc3sc4ccccc4c(=O)c3c2)c2cc(C)c(S(=O)(=O)c3ccc4sc5ccccc5c(=O)c4c3)cc2C)c1 (centres unmarked)")
40
>>> observed_value("Cc1ccc(C)c([S+](c2ccc3sc4ccccc4c(=O)c3c2)c2cc(C)c(Sc3ccc4sc5ccccc5c(=O)c4c3)cc2C)c1 (centres unmarked) [Example 36]")
25
>>> observed_value("COc1cccc([S+](c2ccc3sc4ccccc4c(=O)c3c2)c2ccc(Sc3ccc4sc5ccccc5c(=O)c4c3)cc2OC)c1 (centres unmarked) [Example 14]")
31

A. Cc1cc([S+](c2ccc3sc4ccccc4c(=O)c3c2)c2cc(C(C)(C)C)ccc2C)c(C(C)(C)C)cc1Sc1ccc2sc3ccccc3c(=O)c2c1 (centres unmarked) [Example 44]
B. O=c1c2ccccc2sc2ccc(Sc3ccc([S+](c4ccccc4)c4ccc5sc6ccccc6c(=O)c5c4)cc3)cc12 (centres unmarked) [Comparative Example 4, reference compound]
C. Cc1cccc([S+](c2ccc3sc4ccccc4c(=O)c3c2)c2ccc(Sc3ccc4sc5ccccc5c(=O)c4c3)cc2C)c1 (centres unmarked) [Example 7]
Please list these in order of increasing Solubility Solvent-3. Thank you! When ranking, write the labels in the order the request describes.
B, C, A

a. Cc1ccc(C)c([S+](c2ccc3sc4ccccc4c(=O)c3c2)c2cc(C)c(Oc3ccc4sc5ccccc5c(=O)c4c3)cc2C)c1 (centres unmarked)
b. O=c1c2ccccc2sc2ccc(Sc3ccc([S+](c4ccccc4)c4ccc5sc6ccccc6c(=O)c5c4)cc3)cc12 (centres unmarked) [Comparative Example 2, reference compound]
Of a and b , whose reported Solubility Solvent-3 is numerically smaller? Your answer should be the label attached to the chosen record.
b
(b: 7 wt %, a: 45 wt %)
